Test system: Cryptococcus neoformans
Assay: Antifungal activity against Cryptococcus neoformans 103 assessed as growth inhibition by agar dilution method
Assay type: functional
measurement_kind: MIC (µg/mL)
Report only the number, with the unit µg/mL understood.

Query string: Query for Cryptococcus neoformans: what MIC does the record show for Cc1cc(OCCCCCC[N+](C)(C)Cc2ccc(Br)o2)c(C(C)C)cc1Cl.Cc1ccc(S(=O)(=O)[O-])cc1 ?
Result string: 100

Query string: Request body: readout MIC, system Cryptococcus neoformans, query C[N+](C)(CCCCOc1c(Br)cc(Br)cc1Br)Cc1ccc([N+](=O)[O-])o1.[Br-] . Return the value.
Result string: 50

Query string: Look up MIC with Cryptococcus neoformans for this compound: C[N+](C)(CCCCCOc1ccc(Cl)cc1Cl)Cc1ccc(Br)o1.[Br-]
Result string: 50

Query string: GET /values?readout=MIC&system=Cryptococcus neoformans&item= C[N+](C)(CCCCCCCCCCOc1c(Br)cc(Br)cc1Br)Cc1ccc(Br)o1.[Br-]
Result string: 4

Query string: Record Cc1cc(OCCCCCC[N+](C)(C)Cc2ccc([N+](=O)[O-])o2)c(C(C)C)cc1Cl.[Br-] : what is its MIC with Cryptococcus neoformans?
Result string: 25

Query string: Request: MIC, test system Cryptococcus neoformans, entry C[N+](C)(CCCCCCOc1c(Br)cc(Br)cc1Br)Cc1ccc(Br)o1.[Br-]
Result string: 25

Query string: State its MIC on Cryptococcus neoformans: Cc1cc(OCCCC[N+](C)(C)Cc2ccco2)c(C(C)C)cc1Cl.[Br-]
Result string: 25

Query string: Please provide the recorded MIC for C[N+](C)(CCCCCOc1c(Br)cc(Br)cc1Br)Cc1ccc([N+](=O)[O-])o1.[Br-] , tested on Cryptococcus neoformans.
Result string: 25

The origin of these recorded values is ChEMBL document CHEMBL3244174.
